Molecular target: human Nav 1.8 (Homo sapiens, UniProt Q9Y5Y9)
Sequence (Q9Y5Y9 126-399 limits assumed): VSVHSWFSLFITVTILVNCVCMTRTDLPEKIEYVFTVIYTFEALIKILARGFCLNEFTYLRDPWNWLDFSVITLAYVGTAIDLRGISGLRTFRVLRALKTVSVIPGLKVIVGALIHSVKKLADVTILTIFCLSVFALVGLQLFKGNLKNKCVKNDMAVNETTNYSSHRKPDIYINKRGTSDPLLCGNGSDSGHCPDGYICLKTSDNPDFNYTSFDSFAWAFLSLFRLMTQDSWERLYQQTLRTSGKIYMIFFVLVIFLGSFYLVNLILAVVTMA
Sequence (Q9Y5Y9 660-890 limits assumed): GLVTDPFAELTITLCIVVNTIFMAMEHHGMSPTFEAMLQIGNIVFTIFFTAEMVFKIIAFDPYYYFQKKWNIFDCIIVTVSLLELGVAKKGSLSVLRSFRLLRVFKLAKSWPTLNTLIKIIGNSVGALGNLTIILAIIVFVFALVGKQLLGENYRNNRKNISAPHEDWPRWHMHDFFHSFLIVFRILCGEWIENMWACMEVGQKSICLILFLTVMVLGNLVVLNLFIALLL
Sequence (Q9Y5Y9 1148-1722 limits assumed): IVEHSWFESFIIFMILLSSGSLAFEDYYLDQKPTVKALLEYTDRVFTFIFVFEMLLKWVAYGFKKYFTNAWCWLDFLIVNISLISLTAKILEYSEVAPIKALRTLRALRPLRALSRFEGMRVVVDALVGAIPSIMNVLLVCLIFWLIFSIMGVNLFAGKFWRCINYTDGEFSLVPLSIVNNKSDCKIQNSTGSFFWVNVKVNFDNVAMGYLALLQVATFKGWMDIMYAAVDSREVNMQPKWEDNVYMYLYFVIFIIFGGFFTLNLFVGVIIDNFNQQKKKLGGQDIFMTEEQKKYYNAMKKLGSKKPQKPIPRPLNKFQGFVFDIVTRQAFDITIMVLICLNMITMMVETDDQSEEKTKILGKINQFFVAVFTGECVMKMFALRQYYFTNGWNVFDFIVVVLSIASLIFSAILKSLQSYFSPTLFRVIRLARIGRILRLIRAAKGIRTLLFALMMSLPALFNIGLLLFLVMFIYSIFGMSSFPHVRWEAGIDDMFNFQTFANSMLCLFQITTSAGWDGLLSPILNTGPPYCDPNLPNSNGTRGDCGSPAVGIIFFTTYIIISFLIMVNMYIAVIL
Assay: E-VIPR assay detecting and measuring Nav inhibition properties
Format: cell-based
Details: HEK cells expressing a truncated form of human Nav 1.8; compound numbers without "*" (not marked as run in the presence of human serum); read-out: measured IC50 value in the E-VIPR Assay
pIC50: −log10 of the molar value.
Listed molecules paired with reported pIC50
quantity-kind: pIC50

>>> value_observed("C[C@H]1[C@@H](c2ccc(F)c(F)c2OCCN2CCC23COC3)[C@H](C(=O)Nc2ccnc(C(N)=O)c2)O[C@@]1(C)C(F)(F)F")
"> 8.00"
>>> value_observed("COc1c([C@H]2[C@H](C(=O)Nc3ccnc(C(=O)N4C[C@@H](F)[C@@H](N(C)C)C4)c3)O[C@@](C)(C(F)(F)F)[C@H]2C)ccc(F)c1F")
"> 8.00"
>>> value_observed("COc1c([C@H]2[C@H](C(=O)Nc3ccnc(C(=O)N4CC5(CCCN5C)C4)c3)O[C@@](C)(C(F)(F)F)[C@H]2C)ccc(F)c1F")
"7.00 to 8.00"
>>> value_observed("COc1c([C@H]2[C@H](C(=O)Nc3ccnc(C(=O)N4CCN(C)C[C@@H]4C)c3)O[C@@](C)(C(F)(F)F)[C@H]2C)ccc(F)c1F")
"7.00 to 8.00"
>>> value_observed("COC1CC(Oc2c([C@H]3[C@H](C(=O)Nc4ccnc(C(N)=O)c4)O[C@@](C)(C(F)(F)F)[C@H]3C)ccc(F)c2F)C1 (some centres unmarked)")
"> 8.00"

---

Molecular target: UniProtKB Q9Y5Y9
Assay: E-VIPR assay detecting and measuring Nav inhibition properties
Format: cell-based
Details: HEK cells expressing a truncated form of human Nav 1.8; compound numbers without "*" (not marked as run in the presence of human serum); read-out: measured IC50 value in the E-VIPR Assay
quantity-kind: IC50

>>> value_observed("CNCCOc1c([C@H]2[C@H](C(=O)Nc3ccnc(C(N)=O)c3)O[C@@](C)(C(F)(F)F)[C@H]2C)ccc(F)c1F [Compound 114]")
"10 to 100 nM"
>>> value_observed("C[C@H]1[C@@H](c2ccc(F)c(F)c2OCc2cc[nH]n2)[C@H](C(=O)Nc2ccnc(C(N)=O)c2)O[C@@]1(C)C(F)(F)F [Compound 83]")
"< 10 nM"
>>> value_observed("COc1c([C@H]2[C@H](C(=O)Nc3ccnc(C(=O)N4CC5COCC(C4)N5)c3)O[C@@](C)(C(F)(F)F)[C@H]2C)ccc(F)c1F [Compound 245]")
"< 10 nM"
>>> value_observed("C[C@H]1[C@@H](c2ccc(F)c(F)c2OCC2(F)CN(C)C2)[C@H](C(=O)Nc2ccnc(C(N)=O)c2)O[C@@]1(C)C(F)(F)F [Compound 105]")
"10 to 100 nM"
>>> value_observed("COc1c([C@H]2[C@H](C(=O)Nc3ccnc(C(=O)N(C)[C@@H]4CCN(C)C4)c3)O[C@@](C)(C(F)(F)F)[C@H]2C)ccc(F)c1F [Compound 269]")
"< 10 nM"
>>> value_observed("COc1c([C@H]2[C@H](C(=O)Nc3ccnc(C(=O)N4C[C@H]5CCNC[C@H]54)c3)O[C@@](C)(C(F)(F)F)[C@H]2C)ccc(F)c1F [Compound 227]")
"< 10 nM"

---

Target: human Nav 1.8 (Homo sapiens, UniProt Q9Y5Y9)
Experiment: E-VIPR assay detecting and measuring Nav inhibition properties
Type: cell-based
Conditions: HEK cells expressing a truncated form of human Nav 1.8; assay performed in the presence of human serum (compound numbers followed by "*"); read-out: measured IC50 value in the E-VIPR Assay
pIC50: −log10 of the molar value.
quantity-kind: pIC50

>>> value_observed("COCC[C@]1(C)C[C@@H](c2ccc(F)c(F)c2OC)[C@H](C(=O)Nc2ccnc(C(N)=O)c2)O1 (single isomer, unassigned)")
"≤ 6.00"
>>> value_observed("Cc1c(F)ccc([C@@H]2C[C@](C)(C(F)(F)F)O[C@H]2C(=O)Nc2ccnc(C(N)=O)c2)c1OCCO (single isomer, unassigned)")
"6.00 to 7.00"
>>> value_observed("C[C@]1(C(F)(F)F)C[C@@H](c2ccc(F)c(F)c2OCCCO)[C@H](C(=O)Nc2ccnc(C(N)=O)c2)O1 (relative stereo)")
"6.00 to 7.00"
>>> value_observed("Cc1c(F)ccc([C@H]2C[C@@](C)(C(F)(F)F)O[C@@H]2C(=O)Nc2ccnc(C(N)=O)c2)c1OCCO (single isomer, unassigned)")
"≤ 6.00"

---

Target: human Nav 1.8 (Homo sapiens, UniProt Q9Y5Y9)
Assay: E-VIPR assay detecting and measuring Nav inhibition properties
Assay type: cell-based
Details: HEK cells expressing a truncated form of human Nav 1.8; compound numbers without "*" (not marked as run in the presence of human serum); read-out: measured IC50 value in the E-VIPR Assay
pIC50: −log10 of the molar value.
quantity-kind: pIC50

>>> value_observed("COc1c([C@H]2[C@H](C(=O)Nc3cc(C(N)=O)ncc3[Si](C)(C)C)O[C@@](C)(C(F)(F)F)[C@H]2C)ccc(F)c1F [Compound 23]")
"6.00 to 7.00"
>>> value_observed("CN[C@H]1CN(C(=O)c2cc(NC(=O)[C@@H]3O[C@@](C)(C(F)(F)F)[C@@H](C)[C@H]3c3ccc(F)c(F)c3OC)ccn2)C[C@H]1F [Compound 292]")
"> 8.00"
>>> value_observed("C[C@H]1[C@@H](c2ccc(F)c(F)c2OCCN2CC3(CCO3)C2)[C@H](C(=O)Nc2ccnc(C(N)=O)c2)O[C@@]1(C)C(F)(F)F [Compound 57]")
"> 8.00"
>>> value_observed("C[C@H]1[C@@H](c2ccc(F)c(F)c2OC2CC(C#N)C2)[C@H](C(=O)Nc2ccnc(C(N)=O)c2)O[C@@]1(C)C(F)(F)F (stereo partly shown) [Compound 80]")
"> 8.00"
>>> value_observed("C[C@H]1[C@@H](c2ccc(F)c(F)c2OCCN[C@@H]2CCOC2)[C@H](C(=O)Nc2ccnc(C(N)=O)c2)O[C@@]1(C)C(F)(F)F [Compound 116]")
"7.00 to 8.00"
>>> value_observed("C[C@H]1[C@@H](c2ccc(F)c(F)c2OCC2CN(C)C2)[C@H](C(=O)Nc2ccnc(C(N)=O)c2)O[C@@]1(C)C(F)(F)F [Compound 104]")
"7.00 to 8.00"
>>> value_observed("C[C@H](CO)COc1c([C@H]2[C@H](C(=O)Nc3ccnc(C(N)=O)c3)O[C@@](C)(C(F)(F)F)[C@H]2C)ccc(F)c1F [Compound 82]")
"> 8.00"
>>> value_observed("CN[C@H]1CN(C(=O)c2cc(NC(=O)[C@@H]3O[C@@](C)(C(F)(F)F)[C@@H](C)[C@H]3c3ccc(F)c(F)c3OC)ccn2)C[C@H]1OC [Compound 297]")
"> 8.00"
>>> value_observed("COc1c([C@H]2[C@H](C(=O)Nc3ccnc(C(N)=O)c3)O[C@@](C)(C(F)(F)F)[C@H]2C)cc(OCc2ccccc2)c(F)c1F [Compound 177]")
"> 8.00"
>>> value_observed("C[C@H]1[C@@H](c2ccc(F)c(F)c2OCCCN2CCOCC2)[C@H](C(=O)Nc2ccnc(C(N)=O)c2)O[C@@]1(C)C(F)(F)F [Compound 62]")
"> 8.00"
>>> value_observed("COc1c([C@H]2[C@H](C(=O)Nc3ccnc(C(=O)N4CC5(CN(C)C5)C4)c3)O[C@@](C)(C(F)(F)F)[C@H]2C)ccc(F)c1F [Compound 268]")
"> 8.00"
>>> value_observed("C[C@H]1[C@@H](c2ccc(F)c(F)c2OCCO)[C@H](C(=O)Nc2ccnc(C(N)=O)c2)O[C@@]1(C)C(F)(F)F [Compound 5]")
"> 8.00"
>>> value_observed("CNC1CCN(C(=O)c2cc(NC(=O)[C@@H]3O[C@@](C)(C(F)(F)F)[C@@H](C)[C@H]3c3ccc(F)c(F)c3OC)ccn2)C1 (single isomer, unassigned) [Compound 222]")
"> 8.00"
>>> value_observed("C/C(COc1c([C@H]2[C@H](C(=O)Nc3ccnc(C(N)=O)c3)O[C@@](C)(C(F)(F)F)[C@H]2C)ccc(F)c1F)=N\\O [Compound 185]")
"> 8.00"
>>> value_observed("COCc1c([C@H]2[C@H](C(=O)Nc3ccnc(C(N)=O)c3)O[C@@](C)(C(F)(F)F)[C@H]2C)ccc(F)c1F (racemic) [Compound 145]")
"> 8.00"
>>> value_observed("C[C@H]1[C@@H](c2ccc(F)c(F)c2OCCN2CC[C@H](F)C2)[C@H](C(=O)Nc2ccnc(C(N)=O)c2)O[C@@]1(C)C(F)(F)F [Compound 49]")
"7.00 to 8.00"
>>> value_observed("COc1c([C@H]2[C@H](C(=O)Nc3ccnc(C(=O)N[C@H]4CCNC4)c3)O[C@@](C)(C(F)(F)F)[C@H]2C)ccc(F)c1F [Compound 238]")
"> 8.00"
>>> value_observed("COc1c([C@H]2[C@H](C(=O)Nc3ccnc(C(=O)N4CCN(C)[C@H](C)C4)c3)O[C@@](C)(C(F)(F)F)[C@H]2C)ccc(F)c1F [Compound 288]")
"> 8.00"
>>> value_observed("COc1c([C@H]2[C@H](C(=O)Nc3ccnc(C(=O)N4C[C@@H](N(C)C)[C@@H](F)C4)c3)O[C@@](C)(C(F)(F)F)[C@H]2C)ccc(F)c1F [Compound 300]")
"7.00 to 8.00"
>>> value_observed("C[C@H]1[C@@H](c2ccc(F)c(F)c2OCC(CO)CO)[C@H](C(=O)Nc2ccnc(C(N)=O)c2)O[C@@]1(C)C(F)(F)F [Compound 91]")
"6.00 to 7.00"
>>> value_observed("C[C@H]1[C@@H](c2ccc(F)c(F)c2OCCN2C3COCC2C3)[C@H](C(=O)Nc2ccnc(C(N)=O)c2)O[C@@]1(C)C(F)(F)F [Compound 131]")
"7.00 to 8.00"
>>> value_observed("COc1c([C@H]2[C@H](C(=O)Nc3ccnc(C(=O)N[C@H]4CN(C)CC[C@H]4OC)c3)O[C@@](C)(C(F)(F)F)[C@H]2C)ccc(F)c1F [Compound 285]")
"6.00 to 7.00"

From: patent US20250213555A1
